Target: ROCK2 (Homo sapiens, UniProt O75116)
Construct: purchased Upstate/Chemicon 14-451
Sequence (O75116 11-552 limits assumed): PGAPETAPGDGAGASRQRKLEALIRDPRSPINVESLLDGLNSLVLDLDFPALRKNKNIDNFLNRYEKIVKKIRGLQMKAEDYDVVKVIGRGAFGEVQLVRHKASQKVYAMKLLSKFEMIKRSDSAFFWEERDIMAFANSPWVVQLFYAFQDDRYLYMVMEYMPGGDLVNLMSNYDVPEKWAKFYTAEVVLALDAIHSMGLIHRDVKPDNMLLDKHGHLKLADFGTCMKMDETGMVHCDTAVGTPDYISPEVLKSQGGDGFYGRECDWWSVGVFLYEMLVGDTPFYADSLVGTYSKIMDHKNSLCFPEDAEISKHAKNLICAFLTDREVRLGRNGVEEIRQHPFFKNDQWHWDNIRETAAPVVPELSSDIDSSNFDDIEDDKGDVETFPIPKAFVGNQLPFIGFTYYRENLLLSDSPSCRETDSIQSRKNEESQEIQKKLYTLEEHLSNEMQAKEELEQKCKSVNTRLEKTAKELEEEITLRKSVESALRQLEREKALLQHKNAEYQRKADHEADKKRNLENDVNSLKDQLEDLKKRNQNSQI
Experiment: Rho kinase inhibition assay (IMAP fluorescence polarization), ROCK2;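 note: kinase reaction started with 10 µM ATP and run 60 min at room temperature, then phosphorylated substrate captured on IMAP beads for 30 min and fluorescence polarization read in mP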
Type: biochemical
Details: 10 μM ATP; read-out: ROCK2 Ki, Avg
Quantity Kind: pKi
pKi here is simply -log10 of the concentration when that concentration is written in mol/L.

The cases that follow already have their pKi on record.
# Molecule, Experimental Target, pKi
records = [
    ("NC(=O)c1cccc(CN2CCC[C@@H](Nc3ccc4[nH]ncc4c3)C2)c1 [Compound 1.221]", "ROCK2 (Homo sapiens, UniProt O75116)", 7.52),
    ("Cc1ccc(CN2CC[C@@H](Nc3cccc4c[n+]([O-])ccc34)C2)cc1OCCO [Compound 2.080]", "ROCK2 (Homo sapiens, UniProt O75116)", 6.90),
    ("c1ccc(CN2CCC[C@H](Nc3cccc4cnccc34)C2)cc1 [Compound 2.050]", "ROCK2 (Homo sapiens, UniProt O75116)", 6.60),
]

Kindly state the measured pKi obtained for c1ccc(CN2CCC[C@@H](Nc3ccc4[nH]ncc4c3)C2)cc1 [Compound 1.110] with ROCK2 (Homo sapiens, UniProt O75116).
7.95

Kindly state the measured pKi obtained for c1cc(C2CC2)ccc1CN1CCC[C@H](Nc2ccc3[nH]ncc3c2)C1 [Compound 1.185] with ROCK2 (Homo sapiens, UniProt O75116).
7.90

Kindly state the measured pKi obtained for CS(=O)(=O)c1ccc(CN2CCC[C@H](Nc3ccc4[nH]ncc4c3)C2)cc1 [Compound 1.181] with ROCK2 (Homo sapiens, UniProt O75116).
7.48

Kindly state the measured pKi obtained for FC(F)(F)c1cccc(CN2CCC[C@@H](Nc3ccc4[nH]ncc4c3)C2)c1 [Compound 1.190] with ROCK2 (Homo sapiens, UniProt O75116).
7.14

Kindly state the measured pKi obtained for Cc1nc(CN2CC[C@@H](Nc3cccc4cnccc34)C2)c(C)o1 [Compound 2.091] with ROCK2 (Homo sapiens, UniProt O75116).
6.63

Kindly state the measured pKi obtained for c1ccc2c(CN3CCC[C@@H](Nc4ccc5[nH]ncc5c4)C3)c[nH]c2c1 [Compound 1.252] with ROCK2 (Homo sapiens, UniProt O75116).
8.35

Kindly state the measured pKi obtained for COc1ccc(CN2CCC[C@@H](Nc3ccc4[nH]ncc4c3)C2)cc1 [Compound 1.226] with ROCK2 (Homo sapiens, UniProt O75116).
8.06

Kindly state the measured pKi obtained for Fc1ccc(CN2CCC[C@@H](Nc3ccc4[nH]ncc4c3)C2)cc1 [Compound 1.146] with ROCK2 (Homo sapiens, UniProt O75116).
7.97

Kindly state the measured pKi obtained for c1cc2cc(CN3CCC[C@@H](Nc4ccc5[nH]ncc5c4)C3)ccc2s1 [Compound 1.138] with ROCK2 (Homo sapiens, UniProt O75116).
8.14

Kindly state the measured pKi obtained for CS(=O)(=O)Nc1cccc(CN2CCC(Nc3ccc4[nH]ncc4c3)C2)c1 (stereo not shown) [Compound 1.087] with ROCK2 (Homo sapiens, UniProt O75116).
7.81

Kindly state the measured pKi obtained for NC(=O)COc1cccc(CN2CCC[C@@H](Nc3ccc4[nH]ncc4c3)C2)c1 [Compound 1.098] with ROCK2 (Homo sapiens, UniProt O75116).
7.60
